The values you see were collected from patent US20100310640A1.

Property: log10(IC50); scope: individual binders
- Tested On: T1, HLA-DR DRB1*0404 (human)
- T1 chain 1: not shown
- T1 chain 2: not shown
- Assay Remarks: radiolabeled-peptide inhibition, purified HLA-DR
- Recorded Conditions: remark: other sources report otherwise
Recorded IC50 (log10, nM)

See these solved cases before continuing.
ILLVVVLGVVFGILI [9019.0068]; 3.55
ISAVVGILLVVVLGV [9019.0067]; 3.48
CYGLGMEHLREVRAV [9019.0044]; 2.69

[in] Need log10(IC50) of SQFLRGQECVEECRV [9019.0062] , thanks.
[out] 3.66

[in] Need log10(IC50) of PESFDGDPASNTAPL [9019.0048] , thanks.
[out] 3.96

[in] Please look up its log10(IC50): KIPVAIKVLRENTSP [1622.03]
[out] 2.10

[in] Request the reported log10(IC50) associated with CMQIAKGMSYLEDVR [9019.0083]
[out] 2.94
